Some compounds, each annotated with its measured IC50.
- study target: GSK-3β (Homo sapiens)
- Construct: GST (N, cleaved yes); made in house; host or cells: Escherichia coli BL21-Codon Plus (DE3)
- protocol: GSK-3β kinase assay (Z'-LYTE Kinase Assay kit Ser/Thr 9 Peptide)
- Format: biochemical
- cond: 50 nM enzyme, 30 μM ATP, 2 μM substrate peptide; triplicate; mean ± SE; read-out: GSK-3β inhibitory activity IC50 (nM) ± SE
- Description: GSK3β belongs to CMGC family. […] The Drak2 kinase reaction was performed in a final assay volume of 3.4 μL using the ADP-GLO Kinase Assay Kit (Promega, Madison, WI, USA), according the ADP-GLO protocol and read on an EnVision plate reader. […] Reactions were according the HTRF protocol and read on an EnVision plate reader. […] Data were expressed as mean ± SE.

| compound | IC50 (nM) |
| --- | --- |
| O=C1NC(=O)C(c2cn(CCCN3CCCCC3)c3ccccc23)=C1c1noc2ccccc12 [7m] | 512 |
| O=C1NC(=O)C(c2cn(CCCn3ccnc3)c3ccccc23)=C1c1noc2ccccc12 [7j] | 0.73 |
| COc1ccc2c(c1)c(C1=C(c3noc4ccccc34)C(=O)NC1=O)cn2CCCN1CCOCC1 [7b] | 357 |
| O=C1NC(=O)C(c2cn(CCCN3CCCC3)c3ccccc23)=C1c1noc2ccccc12 [7n] | 659 |
| CCCCn1cc(C2=C(c3noc4ccccc34)C(=O)NC2=O)c2ccccc21 [7p] | 58.7 |
| Cn1cc(C2=C(c3noc4ccccc34)C(=O)NC2=O)c2ccccc21 [7o] | 22.1 |
| O=C1NC(=O)C(c2cn(CCCCn3ccnc3)c3ccccc23)=C1c1noc2ccccc12 [7k] | 89.8 |
| O=C1NC(=O)C(c2cn(CCCN3CCOCC3)c3cc(Cl)ccc23)=C1c1noc2ccccc12 [7e] | 510 |
| O=C1NC(=O)C(c2cn(CCCN3CCOCC3)c3ccccc23)=C1c1noc2ccccc12 [7h] | 138 |

---

- study target: GSK-3β (Homo sapiens, UniProt P49841)
- Construct: GST (N, cleaved yes); made in house; host or cells: Escherichia coli BL21-Codon Plus (DE3)
- Sequence (P49841 whole entry): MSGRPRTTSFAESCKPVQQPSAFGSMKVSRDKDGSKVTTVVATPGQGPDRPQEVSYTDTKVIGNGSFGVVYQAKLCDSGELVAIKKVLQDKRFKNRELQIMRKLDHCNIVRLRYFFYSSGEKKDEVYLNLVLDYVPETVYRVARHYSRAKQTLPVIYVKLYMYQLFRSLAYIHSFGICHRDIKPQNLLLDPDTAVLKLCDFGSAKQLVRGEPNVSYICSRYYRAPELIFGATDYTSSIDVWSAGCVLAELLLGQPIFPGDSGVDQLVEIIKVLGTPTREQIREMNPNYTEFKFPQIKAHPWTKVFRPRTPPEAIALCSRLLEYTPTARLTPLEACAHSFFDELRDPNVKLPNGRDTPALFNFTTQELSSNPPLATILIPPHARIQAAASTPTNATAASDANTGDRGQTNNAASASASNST
- protocol: GSK-3β kinase assay (Z'-LYTE Kinase Assay kit Ser/Thr 9 Peptide)
- Assay type: biochemical
- cond: 50 nM enzyme, 30 μM ATP, 2 μM substrate peptide; triplicate; mean ± SE; read-out: GSK-3β inhibitory activity IC50 (nM) ± SE
reported metric: IC50

| test smiles | endpoint value |
| --- | --- |
| O=C1NC(=O)C(c2cn(CCCN3CCOCC3)c3cc(F)ccc23)=C1c1noc2ccccc12 | 127 nM |
| O=C1NC(=O)C(c2cn(CCCCN3CCOCC3)c3ccccc23)=C1c1noc2ccccc12 | 411 nM |
| O=C1NC(=O)C(c2cn(CCCN3CCOCC3)c3cc(Br)ccc23)=C1c1noc2ccccc12 | 210 nM |
| O=C1NC(=O)C(c2cn(CCN3CCOCC3)c3ccccc23)=C1c1noc2ccccc12 | 616 nM |
| O=C1NC(=O)C(c2cn(CCCn3cncn3)c3ccccc23)=C1c1noc2ccccc12 | 20.9 nM |
| O=C1NC(=O)C(c2cn(CCCO)c3ccccc23)=C1c1noc2ccccc12 | 38.9 nM |
| O=C1NC(=O)C(c2cn(CCCN3CCOCC3)c3ccc(Br)cc23)=C1c1noc2ccccc12 | 10.2 nM |
| O=C1NC(=O)C(c2noc3ccccc23)=C1c1c[nH]c2ccccc12 | 332 nM |
